Cited source: paper PMC9482650

- targetEntity: DLG2_2, Q15700
- Sequence (Q15700 189-283): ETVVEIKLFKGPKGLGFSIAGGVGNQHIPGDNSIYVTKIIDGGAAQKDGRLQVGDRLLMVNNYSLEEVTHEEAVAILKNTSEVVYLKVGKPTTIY
- testMethodNotes: holdup assay
- Parameters: key: below the threshold = too weak to quantify, mostly under pKd 3.1 to 4
- measurementContext: plain residues with an end cap or a label only (N-terminal biotin on a linker: ado-ado)
experimentalReadout: pKd

binder: FVFESRKEIL [TBPL1, P62380]
pKd: below the threshold

binder: KSRPENGTVC [TMEM178B, H3BS89]
pKd: below the threshold

binder: STYCDYTIEI [FAM71C, Q8NEG0]
pKd: below the threshold

binder: MQILSKPEFI [NPSR1, Q6W5P4]
pKd: below the threshold

binder: TKDKVQETQI [LRRC4, Q9HBW1]
pKd: 4.67

q: Give its pKd value. Item: SSSVNVSSNL [CXCR1, P25024]
a: below the threshold

q: Give its pKd value. Item: MLPANYVEAI [NEB, P20929]
a: below the threshold

q: Give its pKd value. Item: LPPPESESKV [KCNJ9, Q92806]
a: below the threshold

q: Give its pKd value. Item: SQPLLVHDDV [KIT, P10721]
a: below the threshold

q: Give its pKd value. Item: SGDGKTSVWI [GJC1, P36383]
a: below the threshold

q: Give its pKd value. Item: DFKHTKSFII [JAM2, P57087]
a: below the threshold

q: Give its pKd value. Item: PDSYHRRDFW [U2AF2, P26368]
a: below the threshold

q: Give its pKd value. Item: KPDKQEEFYA [SDC3, O75056]
a: below the threshold

q: Give its pKd value. Item: EPAKETTTNV [SLC2A3, P11169]
a: 4.16

q: Give its pKd value. Item: GTMFLRETSL [GUCY1A2, P33402]
a: 4.23

q: Give its pKd value. Item: PSDSVGKDVF [EGLN1, Q9GZT9]
a: below the threshold

q: Give its pKd value. Item: WAKEKQHTRL [SLC17A1, Q14916]
a: 3.82

q: Give its pKd value. Item: GSQSQVETEA [FKBP4, Q02790]
a: below the threshold

q: Give its pKd value. Item: FLVTEFNVML [DFNB31, Q9P202]
a: below the threshold

q: Give its pKd value. Item: PLPPEEESWV [GAS2L2, Q8NHY3]
a: 4.19

q: Give its pKd value. Item: GNDPDRGTSI [GRID2, O43424]
a: below the threshold

q: Give its pKd value. Item: THHRKIHTRV [ZNF599, Q96NL3]
a: 5.38

q: Give its pKd value. Item: GVHSNDHSVV [LPAR1, Q92633]
a: 3.74

q: Give its pKd value. Item: DLLGGGSDSI [TNRC6B, Q9UPQ9]
a: below the threshold

q: Give its pKd value. Item: HLSTRQGTCV [ATRNL1, Q5VV63]
a: 4.21
